# ASSAY PROTOCOL: yeast display, Sf9 membrane polyspecificity reagent, FACS + sequencing; frameworks hold sequencing errors
RECORDED METRIC: polyreactivity (PSR sort gate)

residue_codes=QVQLVESGGGLVQAGGSLRLSCAASGYIFNVYAMGWYRQAPGKESELVAAISTSGGSTYYADSVKGRFSISRDNAKNTVYLQMNSLKPEDTAVYYCAAKSTLSRSHKSDYWGQGTQVTVSS recorded_metric="polyreactivity (PSR sort gate)" experimental_result="high polyreactivity"
residue_codes=QVQLVESGGGLVQAGGSLRLSCAASGSTFGFYMGWYRQAPGKERELVAAIDSSGGITYADSVKGRFTISRDNAKNTVYLQMNSLKPEDTAVYYCNTSYPIAPEDDYWGQGTQVTVSS recorded_metric="polyreactivity (PSR sort gate)" experimental_result="low polyreactivity"
residue_codes=QVQLVESGGGLVQAGGSLRLSCAASGFTFSHYAMGWYRQAPGKEMELVAAITWSGGSTYYADSVKGRFTISRDNAKNTVYLQMNSLKPEDTAVYYCAAESYLDGGDYWGQGTQVTVSS recorded_metric="polyreactivity (PSR sort gate)" experimental_result="high polyreactivity"
residue_codes=QVQLVESGGGLVQAGGSLRLSCAASGGIFSYYAMGWYRQAPGKERELVAAITGSGATTYYADSVKGRFTISRDNAKNTVYLQMNSLKPEDTAVYYCAADYWTAFYTLDSWGQGTQVTVSS recorded_metric="polyreactivity (PSR sort gate)" experimental_result="low polyreactivity"
residue_codes=QVQLVESGGGLVHAGGSLRLSCADSGRIIGINAMGCYRQAPGKERELVAAINWSGGSTYYADSVKGRFTISRDNAKNTVYLQMNSLKPEDTAVYYCAAQKYKRVGYWGLGTQVTVSS recorded_metric="polyreactivity (PSR sort gate)" experimental_result="high polyreactivity"
residue_codes=QVQLVQSGGGLVQAGGSLRLSCAASGNIFKGYAMRWYRQAPVKERELVAAISKSGGSTYYADSVKGRFTMSRDNAKNTVYLQLNSLKPADTAVYYSNTYTYAGYNYWGQGTQVTVSS recorded_metric="polyreactivity (PSR sort gate)" experimental_result="high polyreactivity"
residue_codes=QVQLVESGGGLVQAGGSLRISCAASGRTFGRYAMEWYRQAPGKERELVAAISWSGGSTYYADSVKGRFTISRDNAKNTVYLQMNSLKPEATAVYYCAAVTTDGVYAFDYWGQGTQVTVSS recorded_metric="polyreactivity (PSR sort gate)" experimental_result="low polyreactivity"
residue_codes=QVQLVESGGGLVQAGGSLRLTCAASGNTFGNYAMGWYRQAPGKERELVASISWNVGSTYYADSVKGRFTISRDNAKNTVYLQMNSLKPEDTAVYYCARGYDRPRVATFHRFDYWGQGTQVTVSS recorded_metric="polyreactivity (PSR sort gate)" experimental_result="low polyreactivity"
residue_codes=QVQLVESGGGLVQAGGSLRLSCAASGSTFYSYAMVWYRPARGPERELVAAITSGGRTYYADSVKGRFTISRDNAKNTVYLQMNCLKPEDTAVYYCSADLPVFGGYRSNRFGYWGQGTQVTVSS recorded_metric="polyreactivity (PSR sort gate)" experimental_result="high polyreactivity"
residue_codes=QVQLVESGGGLVQAGGSLRLSCAGSGSISYFNAMGWYRQAPGKERELVAAISYSGGSTYYADSVKGRFTISRDNAKNTVYLQMNSLKPEDTAVYYCAADRLIGWRKTYYYWGQGTQVTVSS recorded_metric="polyreactivity (PSR sort gate)" experimental_result="high polyreactivity"
residue_codes=QVQLVESGGGLVQAGGSLSLSCAASGFIFRGNGMGWYRQAPGKERELVAAIDSTDSTNYADSVKGRFTISRDNAKNTVYLQMNSLKPEDTAVYYCAAGVSWYGPYDYLWFYAFDYWGQGTQVTVSS recorded_metric="polyreactivity (PSR sort gate)" experimental_result="low polyreactivity"
residue_codes=QVQLVESGGGLVQAGGSLRLSCAASGRIFFGYAMGWYRPAPGKERVLVAAISSRGGSTYYADSVKGRFTISRDNAKNTVYLKMNSLKPEDTAVYYCARKRYKRSTRTEFGYWGQGTQVTVSS recorded_metric="polyreactivity (PSR sort gate)" experimental_result="high polyreactivity"
residue_codes=QVQLQESGGGLVQAGGSLSLSCAASGSISAVGAMGWYRKAPGKERELAASVNWCTNTNYADSVKGRFTISRDNAKNTLYLQMNSLKPEDTAVYYCAVLPDWETRHDYWGHGTQVTVSS recorded_metric="polyreactivity (PSR sort gate)" experimental_result="low polyreactivity"
residue_codes=QVQLVESGGGLVQAGGSLRLSCAASGGIFKVYGMRWYRQAPGKERELVAAISWTTGGTYYADSVKGRFTISRDNAKITVYLQMNSLKQEDTAVYYCAAEYADSWSAFDWNYYYWGQGTQVTVSS recorded_metric="polyreactivity (PSR sort gate)" experimental_result="high polyreactivity"
residue_codes=QVQLVESGGGLVQAGGSLRLSCAASGSTFPVYAMGWYRQAPGKERELVAAISRAGSTNYADSVKGRFTISRDNAKNTVYLQMNSLKPEDTAVYYCAARGYLWAGEWYVRRDYWGQGTQVTVSS recorded_metric="polyreactivity (PSR sort gate)" experimental_result="high polyreactivity"
residue_codes=QVQLVESGGGLVQAGGSLRLSCAASGRIFAVNAMGWYRQAPGKERELVAAISWSGGITRYADSVKGRFTISRDNAKNTVYLQMNSLKPEDTAVYYCNASQWPSRFDYWGQGTQVTVSS recorded_metric="polyreactivity (PSR sort gate)" experimental_result="low polyreactivity"
residue_codes=QVQLVESGGGLVQAGGSLRLSCAASGSTFSENAMGWYRQAPGKERELVAAISWGGGSTYYADSVKGRFTISRDYAKNTVYLQMNSLKPEDTAVYYCNADVFDDYGYFESDYWGQGTQVTVSS recorded_metric="polyreactivity (PSR sort gate)" experimental_result="low polyreactivity"
residue_codes=QVQLQESGGLVQAGGLRLSCAASGSVSYQEAMGWYRQSPGKERELVATISFGANTNYADSVKGRFTISRDNAKNTVYLQMNSLKPEDTAVYYCAAESLFDDYYGYWGQGTQVTVSS recorded_metric="polyreactivity (PSR sort gate)" experimental_result="low polyreactivity"
residue_codes=QVQLVESGGGLVQAGGSLRLSCAASGRTFGIYAMGWYRQAPGKERELVAAITWSGDSTYYADSVKGRVTISRDNAKNTVYLQMNSLKPEDTAVYYGAADYVGVTSVRYDYWGQGTQVTVSS recorded_metric="polyreactivity (PSR sort gate)" experimental_result="low polyreactivity"
residue_codes=QVQLVESGGGLVQAGGSLRLSCAASGFIYNTKGWYRQAPGKERELVAAISRSGGSTDYADSVKGRFTISRDNAKNTVYLQMTSLKPEDTAVYYCAARRPYRDGYDYWGQGTQVTVSS recorded_metric="polyreactivity (PSR sort gate)" experimental_result="high polyreactivity"
residue_codes=QVQLVESGGGLVQAGGSLRLSCAASGSTFAYNAMGWYRQAPGKERELVAAISWRGGSTYYADSVKGRFTISRDNAKNTVYLQMNSLKPEDTAVYYCAALYPYKREDYWGQGTQVTVSS recorded_metric="polyreactivity (PSR sort gate)" experimental_result="high polyreactivity"

Where these numbers come from: the nanobody polyreactivity screen of Harvey et al. (2022)
